assay_method_text: Inhibition of ADP-induced aggregation of human blood platelets in plasma
Assay type: functional
condition_label: Homo sapiens, Plasma
IC50 under 5 µM gets Fulfilled, anything at or over 5 µM gets Not fulfilled.

{"mol_smiles": "O=C(O)CCCCCCCCn1ccc(C(c2ccccc2)c2ccccc2)n1", "assigned_label": "Not fulfilled"}
{"mol_smiles": "O=C(O)CCCCCCCn1c(-c2ccccc2)nc(-c2ccccc2)c1-c1ccccc1", "assigned_label": "Fulfilled"}
{"mol_smiles": "O=C(O)CCCCCCCCCc1nnc(-c2ccccc2)n1-c1ccccc1", "assigned_label": "Not fulfilled"}
{"mol_smiles": "O=C(O)CCCCCCCCn1cc(-c2ccccc2)c(-c2ccccc2)n1", "assigned_label": "Fulfilled"}
{"mol_smiles": "O=C(O)COc1cccc(CCc2nc(-c3ccc(Cl)cc3)c(-c3ccc(Cl)cc3)o2)c1", "assigned_label": "Not fulfilled"}
{"mol_smiles": "O=C(O)COc1cccc(CCn2nnc(C(c3ccccc3)c3ccccc3)n2)c1", "assigned_label": "Fulfilled"}
{"mol_smiles": "O=C(O)CCCCCCCCc1nc(-c2ccccc2)c(-c2ccccc2)o1", "assigned_label": "Not fulfilled"}
{"mol_smiles": "Cc1ccccc1-c1nc(CCc2cccc(OCC(=O)O)c2)oc1-c1ccccc1C", "assigned_label": "Not fulfilled"}
{"mol_smiles": "O=C(O)COc1cccc(CCn2ncc(-c3ccccc3)c2-c2ccccc2)c1", "assigned_label": "Fulfilled"}
{"mol_smiles": "O=C(O)CCCCOc1ccc(-n2cnc(-c3ccccc3)c2-c2ccccc2)cc1", "assigned_label": "Not fulfilled"}
{"mol_smiles": "O=C(O)COc1cccc(CCc2nnc(-c3ccccc3)n2-c2ccccc2)c1", "assigned_label": "Not fulfilled"}
{"mol_smiles": "O=C(O)CCCCCCCCCCN(C(=O)c1ccccc1)c1ccccc1", "assigned_label": "Not fulfilled"}
{"mol_smiles": "O=C(O)CCCCCCCCn1nc(-c2ccccc2)n(-c2ccccc2)c1=O", "assigned_label": "Fulfilled"}
{"mol_smiles": "O=C(O)CCCCCCCCn1nc(-c2ccccc2)c(-c2ccccc2)cc1=O", "assigned_label": "Not fulfilled"}
{"mol_smiles": "O=C(O)CCCCCCCCn1nc(-c2ccccc2)c2ccccc2c1=O", "assigned_label": "Not fulfilled"}
{"mol_smiles": "O=C(O)CCCCCCCCN(C(=O)c1ccccc1)c1ccccc1", "assigned_label": "Not fulfilled"}
{"mol_smiles": "O=C(O)COc1cccc(CCc2nc(-c3ccc(F)cc3)c(-c3ccc(F)cc3)o2)c1", "assigned_label": "Fulfilled"}
{"mol_smiles": "O=C(O)CCCCCCCn1nnc(C(c2ccccc2)c2ccccc2)n1", "assigned_label": "Not fulfilled"}
{"mol_smiles": "O=C(O)COc1cccc(CCc2nc(-c3cccs3)c(-c3cccs3)o2)c1", "assigned_label": "Not fulfilled"}

====

assay_method_text: Inhibition of ADP-induced aggregation of human blood platelets in plasma
Format: functional
condition_label: Homo sapiens, Plasma
Here the recorded IC50 is given for each entry.

{"molecule": "O=C(O)CCCCCCCCn1cc(-c2ccccc2)c(-c2ccccc2)nc1=O", "result_comparator": "=", "IC50 [µM]": 29.7}
{"molecule": "O=C(O)COc1cccc(CCc2nc(C3CCCCC3)c(C3CCCCC3)o2)c1", "result_comparator": ">", "IC50 [µM]": 78}
{"molecule": "O=C(O)CCCCCCCCN1C(=O)C(c2ccccc2)N(c2ccccc2)C1=O (stereo unspecified)", "result_comparator": "=", "IC50 [µM]": 29.4}
{"molecule": "Cc1nc(-c2ccccc2)c(-c2ccccc2)n1CCCCCCCCC(=O)O", "result_comparator": "=", "IC50 [µM]": 3.04}
{"molecule": "O=C(O)CCCCCCCn1c(C(F)(F)F)nc(-c2ccccc2)c1-c1ccccc1", "result_comparator": "=", "IC50 [µM]": 4.64}
{"molecule": "O=C(O)CCCCCCCn1nc(-c2ccccc2)c(-c2ccccc2)c(-c2ccccc2)c1=O", "result_comparator": ">", "IC50 [µM]": 68}
{"molecule": "O=C(O)CCCCCCCSc1cc(-c2ccccc2)c(-c2ccccc2)nn1", "result_comparator": ">", "IC50 [µM]": 78}
{"molecule": "O=C(O)COc1cccc(Cn2cnc(-c3ccccc3)c2-c2ccccc2)c1", "result_comparator": ">", "IC50 [µM]": 82}
{"molecule": "O=C(O)CCCCCCCCn1nccc1C(c1ccccc1)c1ccccc1", "result_comparator": ">", "IC50 [µM]": 82}
{"molecule": "O=C(O)CCCCCCCCN1C(=O)NC(c2ccccc2)(c2ccccc2)C1=O", "result_comparator": ">", "IC50 [µM]": 78}
{"molecule": "O=C(O)COc1cccc(CCC(=O)NCC(c2ccccc2)c2ccccc2)c1", "result_comparator": ">", "IC50 [µM]": 79}
{"molecule": "O=C(O)COc1cccc(CCc2cc(-c3ccccc3)n(-c3ccccc3)n2)c1", "result_comparator": "=", "IC50 [µM]": 1.67}
{"molecule": "O=C(O)COc1cccc(CCc2nc(-c3cccc(Cl)c3)c(-c3cccc(Cl)c3)o2)c1", "result_comparator": ">", "IC50 [µM]": 68}
{"molecule": "O=C(O)COc1cccc(CCc2nc3c4ccccc4c4ccccc4c3o2)c1", "result_comparator": ">", "IC50 [µM]": 20}
{"molecule": "O=C(O)COc1cccc(CCn2nc(-c3ccccc3)n(-c3ccccc3)c2=O)c1", "result_comparator": "=", "IC50 [µM]": 1.57}
{"molecule": "Cc1nc(-c2ccccc2)c(-c2ccccc2)n1CCCCCCCC(=O)O", "result_comparator": "=", "IC50 [µM]": 4.4}

====

Catalogue of pIC50 readings, one per entry.
assay_method_text: Inhibition of ADP-induced aggregation of human blood platelets in plasma
Type: functional
condition_label: Homo sapiens, Plasma
pIC50: −log10 of the molar value.

{"mol_smiles": "O=C(O)CCCCCCCc1nnc(-c2ccccc2)n1-c1ccccc1", "pIC50": "< 4.06"}
{"mol_smiles": "O=C(O)COc1cccc(CCn2nc(-c3ccccc3)c(-c3ccccc3)c2-c2ccccc2)c1", "pIC50": 4.61}
{"mol_smiles": "O=C(O)COc1cccc(CCC(=O)NC(c2ccccc2)c2ccccc2)c1", "pIC50": "< 4.09"}
{"mol_smiles": "O=C(O)CCCCCCCn1nnnc1C(c1ccccc1)c1ccccc1", "pIC50": "< 4.08"}
{"mol_smiles": "Cc1cccc(-c2nc(CCc3cccc(OCC(=O)O)c3)oc2-c2cccc(C)c2)c1", "pIC50": "< 4.12"}
{"mol_smiles": "O=C(O)COc1cccc(CCc2nc(-c3ccccc3)c(-c3ccccc3)[nH]2)c1", "pIC50": 5.54}
{"mol_smiles": "O=C(O)CCCCCCCSc1nnc(-c2ccccc2)c(-c2ccccc2)n1", "pIC50": "< 4.13"}
{"mol_smiles": "O=C(O)CCCCCCCCc1nnc(-c2ccccc2)n1-c1ccccc1", "pIC50": "< 4.07"}
{"mol_smiles": "O=C(O)CCCCOc1cccc(-n2cnc(-c3ccccc3)c2-c2ccccc2)c1", "pIC50": "< 4.49"}
{"mol_smiles": "O=C(O)CCCCCCCCn1cnc(-c2ccccc2)c1-c1ccccc1", "pIC50": 4.23}
{"mol_smiles": "O=C(O)COc1cccc(CCc2nc(-c3ccsc3)c(-c3ccsc3)o2)c1", "pIC50": 4.77}
{"mol_smiles": "O=C(O)COc1cccc(CCc2cc(-c3ccccc3)n(C(c3ccccc3)c3ccccc3)n2)c1", "pIC50": "< 4.20"}
{"mol_smiles": "O=C(O)CCCCCCCCn1nnc(C(c2ccccc2)c2ccccc2)n1", "pIC50": 4.97}
{"mol_smiles": "O=C(O)COc1cccc(CCc2nc(-c3ccc(C(F)(F)F)cc3)c(-c3ccc(C(F)(F)F)cc3)o2)c1", "pIC50": "< 4.22"}
{"mol_smiles": "O=C(O)COc1ccc(-n2cnc(-c3ccccc3)c2-c2ccccc2)cc1", "pIC50": "< 4.08"}
{"mol_smiles": "O=C(O)COc1ccc(CCc2nnc(-c3ccccc3)n2-c2ccccc2)cc1", "pIC50": "< 4.10"}

====

assay_method_text: Inhibition of ADP-induced aggregation of human blood platelets in plasma
Type: functional
condition_label: Homo sapiens, Plasma
pIC50: −log10 of the molar value.

{"mol_smiles": "O=C(O)CCCCCCCSc1nnc(-c2ccccc2)c(-c2ccccc2)c1-c1ccccc1", "pIC50": "< 4.19"}
{"mol_smiles": "O=C(O)CCCCCCCn1nc(-c2ccccc2)n(-c2ccccc2)c1=O", "pIC50": "< 4.08"}
{"mol_smiles": "O=C(O)CCCCCCCn1nc(-c2ccccc2)c2ccccc2c1=O", "pIC50": "< 4.08"}
{"mol_smiles": "O=C(O)COc1ccc(/C=C/c2nnc(-c3ccccc3)n2-c2ccccc2)cc1", "pIC50": "< 4.10"}
{"mol_smiles": "O=C(O)CCCCCCCCn1nnnc1C(c1ccccc1)c1ccccc1", "pIC50": "< 4.09"}
{"mol_smiles": "O=C(O)CCCCCCCCOc1ncc(-c2ccccc2)c(-c2ccccc2)n1", "pIC50": "< 4.10"}
{"mol_smiles": "O=C(O)CCCCCCCCn1c(=O)c2ccccc2n(-c2ccccc2)c1=O", "pIC50": "< 4.09"}
{"mol_smiles": "O=C(O)COc1cccc(-n2cnc(-c3ccccc3)c2-c2ccccc2)c1", "pIC50": "< 4.09"}
